# PROTOCOL: yeast display, Sf9 membrane polyspecificity reagent, FACS + sequencing; frameworks hold sequencing errors
MEASUREMENT KIND: polyreactivity (PSR sort gate)

ENTRY SEQUENCE	VALUE OBSERVED
QVQLVESGGGLVQAGGSLRLSCAASGSTFSRYAMGWYRQAPGKERELVAAISSSGGGTYYADSVKGRFTISRDNAKNTVYLQMNSLKPEDTAVYYCAAKRVHGATGYWGQGTQVTVSS	high polyreactivity
QVQLVESGGGLVQAGGSHRLSCDSSGTFKWYAMGWYRQAPGKERELVAVISTSGGTTNYADSVKGRFTISLDNAKNTVYLQMNSLKPEDTAVYYCNAAKLFRYDYWGQGTQVTVSS	high polyreactivity
